Every entry's value here was drawn from the supplement of paper PMC7125110.

The following variants are shown together with reported self-cleavage kobs at 40 uM GlcN6P values.
B1: glmS ribozyme (parent)
chain: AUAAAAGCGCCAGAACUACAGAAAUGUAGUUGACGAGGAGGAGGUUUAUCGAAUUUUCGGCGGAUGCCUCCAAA

- Variants of: B1
- Assay: self-cleavage kobs at 40 uM GlcN6P; higher = faster cleavage; RNA array
- Condition Description: with glucosamine-6-phosphate
Fewer inactive variants are shown than the library holds.
Reported Metric: self-cleavage kobs at 40 uM GlcN6P (s⁻¹)

>>> test_value("U45G U55G")
0.000146
>>> test_value("G40C C71G")
0.000948
>>> test_value("A39C C67U")
"3.13e-05"
>>> test_value("C11G C50G")
"6.35e-05"
>>> test_value("G13C G29U G32A U54G U65C C68G U69G")
0.00014
>>> test_value("G40A A64G")
"7.68e-05"
